Quick reference: normalized growth of the listed items.
assay: chemical genetic growth profiling, strain panel (AID 1159580);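 further: tested at 20 µM; growth read once vehicle control cultures reached saturation at 30 °C; 1 = growth at the plate median or of vehicle wells; lower values mean less growth of the strain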; conditions: S. cerevisiae deletion strains, growth OD, locus YNL298W, strain CLA4, hits give low values
The whole screen tested about 5,500 compounds, of which about 2,000 (36%) were called active. About 18% were inconclusive and are not listed. Some of the results follow.

- Molecule: "CNC(=O)CSP(=S)(OC)OC"
  normalized growth: 1.02
- Molecule: "CC(=O)OC1CCC23C(=O)OC45CCC(C6=CC(=O)OC6)C4(C)CCC2C5CCC3(O)C1 (stereo not drawn)"
  normalized growth: 1.01
- Molecule: "O=C(O)c1cc2cc(Cl)ccc2[nH]1"
  normalized growth: 0.978
- Molecule: "O=c1cc(-c2ccc(O)cc2)oc2cc(O[C@@H]3O[C@H](CO)[C@@H](O)[C@H](O)[C@H]3O[C@@H]3OC[C@](O)(CO)[C@H]3O)cc(O)c12"
  normalized growth: 0.994
- Molecule: "CC(=O)OCC(=O)[C@@]1(O)CCC2C3CCC4=CC(=O)CC[C@]4(C)[C@@]3(F)[C@@H](O)C[C@@]21C (stereo partly drawn)"
  normalized growth: 0.986
- Molecule: "CC1(C)C[C@@H]2C(=O)CC[C@H]3O[C@]3(C)CC[C@H]21"
  normalized growth: 0.996
- Molecule: "c1ccc2c(c1)[nH]c1cnccc12"
  normalized growth: 0.984
- Molecule: "CC(C(=O)O)c1ccc(N2Cc3ccccc3C2=O)cc1 (stereo not drawn)"
  normalized growth: 0.981

----------
Quick reference: normalized growth of the listed items.
test: chemical genetic growth profiling, strain panel (AID 1159580);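 further: tested at 20 µM; growth read once vehicle control cultures reached saturation at 30 °C; 1 = growth at the plate median or of vehicle wells; lower values mean less growth of the strain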; details: S. cerevisiae deletion strains, growth OD, locus YOR083W, strain WHI5 (second series), hits give low values
The campaign covered roughly 5,500 compounds. About 2,000 (36%) were called active. Inconclusive results (about 18%) are left out. This is one part of the list.

- Molecule: "Cn1cnc2c(NC3CCCC3)ncnc21"
  normalized growth: 0.984
- Molecule: "NCCNC(=O)c1ncsc1-c1cccc(F)c1"
  normalized growth: 0.974
- Molecule: "NC(=S)c1ccc[n+]([C@@H]2O[C@@H](COP(=O)([O-])OP(=O)(O)OC[C@H]3O[C@@H](n4cnc5c(N)ncnc54)C(OP(=O)(O)O)[C@H]3O)C(O)C2O)c1 (stereo partly drawn)"
  normalized growth: 0.998

----------
assay: chemical genetic growth profiling, strain panel (AID 1159580);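 further: tested at 20 µM; growth read once vehicle control cultures reached saturation at 30 °C; 1 = growth at the plate median or of vehicle wells; lower values mean less growth of the strain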; settings: S. cerevisiae deletion strains, growth OD, locus YBR009C, strain hhf1, hits give low values
Hit rate of the full screen: of about 5,500 compounds, about 2,000 (36%) were called active. Not shown: some 18% with an inconclusive outcome. This is one part of the list.

- Compound: "Cc1cc(C)nc(NS(=O)(=O)c2ccc(N)cc2)n1"
  normalized growth: 0.934
- Compound: "Cc1c(N(C)CS(=O)(=O)O)c(=O)n(-c2ccccc2)n1C"
  normalized growth: 1
- Compound: "O=C(O)c1cccc(O)c1O"
  normalized growth: 1.02
- Compound: "CSCCC(NC=O)C(=O)NC(CC(C)C)C(=O)NC(Cc1ccccc1)C(=O)O (configuration not stated)"
  normalized growth: 1
- Compound: "Cc1nccc2c1[nH]c1ccccc12"
  normalized growth: 0.971
- Compound: "CCOc1ccc(Cc2nccc3cc(OCC)c(OCC)cc23)cc1OCC"
  normalized growth: 0.975
- Compound: "Nc1ncnc2c1ncn2[C@@H]1O[C@H](CO)[C@@H](O)[C@@H]1O"
  normalized growth: 1.01
- Compound: "COc1cc2ccc(=O)oc2c2ccoc12"
  normalized growth: 0.777
- Compound: "CC(=O)O[C@@H]1CC2C(C)(C)[C@H](O)C[C@H](O)[C@]2(C)C2CC[C@@]3(C)C(=CC(=O)O[C@H]3c3ccoc3)[C@@]21C (some centres not stated)"
  normalized growth: 1.02
- Compound: "COc1cc2ccc(=O)oc2cc1O"
  normalized growth: 1.01
- Compound: "Cn1cnc([N+](=O)[O-])c1Sc1ncnc2nc[nH]c12"
  normalized growth: 1.01
- Compound: "COc1cc(O)c(C)c(O)c1"
  normalized growth: 1.02
- Compound: "O=c1n(CCCN2CCN(c3cccc(Cl)c3)CC2)nc2ccccn12"
  normalized growth: 0.983
- Compound: "CN1CCN(CCCN2c3ccccc3Sc3ccc(Cl)cc32)CC1"
  normalized growth: 0.8
- Compound: "COc1c2occc2cc2ccc(=O)oc12"
  normalized growth: 0.878
- Compound: "CC(C)=CCC1=C(O)c2ccccc2C(=O)C1=O"
  normalized growth: 0.804
- Compound: "C=C(C)c1cc2cc(C(C)=O)c(O)cc2o1"
  normalized growth: 0.927
- Compound: "c1ccc2c(c1)[nH]c1cnccc12"
  normalized growth: 1
- Compound: "CC(C)=CCOc1c2occc2cc2ccc(=O)oc12"
  normalized growth: 0.851
- Compound: "O=c1ccc2cc(O[C@@H]3O[C@H](CO)[C@@H](O)[C@H](O)[C@H]3O)c(O)cc2o1"
  normalized growth: 1.01
- Compound: "C[C@]12CCC3C(CC[C@H]4C[C@@H](O)CC[C@]34C)C1CCC2=O (some centres not stated)"
  normalized growth: 0.896
- Compound: "CC1=C(C(=O)O)N2C(=O)[C@@H](NC(=O)[C@H](N)C3=CCC=CC3)C2SC1 (some centres not stated)"
  normalized growth: 1.02
